All figures here come from BindingDB's records for doi:10.7270/Q2D798VP.

- targetUnderTest: Zinc finger protein mex-5 (Caenorhabditis elegans)
- Sequence (Q9XUB2 whole entry): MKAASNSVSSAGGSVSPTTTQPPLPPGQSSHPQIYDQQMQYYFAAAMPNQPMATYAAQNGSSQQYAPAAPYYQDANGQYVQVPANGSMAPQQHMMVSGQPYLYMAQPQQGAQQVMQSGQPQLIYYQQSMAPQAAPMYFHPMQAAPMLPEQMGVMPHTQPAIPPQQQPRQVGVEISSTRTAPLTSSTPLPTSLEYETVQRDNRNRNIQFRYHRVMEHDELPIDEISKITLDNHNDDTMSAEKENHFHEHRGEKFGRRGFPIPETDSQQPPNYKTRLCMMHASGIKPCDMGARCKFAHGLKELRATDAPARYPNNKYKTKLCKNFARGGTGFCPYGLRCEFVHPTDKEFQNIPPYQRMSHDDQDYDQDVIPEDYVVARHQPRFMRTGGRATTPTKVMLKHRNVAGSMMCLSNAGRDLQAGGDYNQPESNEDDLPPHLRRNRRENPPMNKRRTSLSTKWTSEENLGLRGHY
- protocolText: MEX-5/TCR-2 RNA interaction inhibitors, dose response, biochemical, C. elegans, fluorescence polarization (AID 1960)
Hi there, I'd appreciate the recorded pEC50 for every entry that follows.
One number for each entry, as −log10 of the molar value.

Take a look at these entries with their results.
INSERT INTO measurements (compound, reportedmetric, result) VALUES
  ('CCOC(=O)N1CCC2=C(C#N)C(=N)C(C#N)(C#N)[C@H](c3ccsc3)[C@H]2C1', 'pEC50', 4.23),
  ('Cc1[nH]c2ccccc2c1/C=C1\N=C(c2ccc(F)cc2)OC1=O', 'pEC50', 5.26),
  ('CCOc1ccc(N2C(=O)NC(=O)C(=Cc3c[nH]c4ccccc34)C2=O)cc1', 'pEC50', 4.33);

Each of the following entries comes with a recorded value; kindly state pEC50 for each.
1. Cc1[nH]n(C(N)=S)c(=O)c1N=Nc1c(Cl)cc([N+](=O)[O-])cc1Cl
2. C/N=C1/S/C(=C\c2ccc(N3CCCC3)c(F)c2)C(=O)N1C
3. CCN(CC)c1ccc(C=NC(C#N)C(=N)C#N)cc1 (stereo not given)
4. C[C@H]1c2cccc(O)c2C(=O)C2C(=O)[C@]3(O)C(=O)C(C(N)=O)C(=O)[C@@H](N(C)C)[C@@H]3[C@@H](O)[C@@H]21 (stereo not given in full)
5. Cn1c2cc(=N)ccc-2c2ccc(N)cc2c1-c1ccccc1

Result:
[4.07, 5.05, 3.94, 4.42, 5.27]

List reported pEC50 for each of these compounds:
1. COc1cccc(C=NNC(=O)c2ccc(=O)[nH]n2)c1O
2. COc1ccc(C2C(C(=O)c3cccs3)C(=O)C(=O)N2c2nnc(C)s2)cc1OC (stereo not given)
3. COc1cc(CN=Nc2[nH]c(=O)nnc2C)ccc1O
4. N#CC1=C2CCCCC2C(c2cccnc2)C(C#N)(C#N)C1=N (stereo not given)

Result:
[4.90, 5.28, 4.51, 4.76]

// for each compound in input: emit pEC50
1. Cc1cc(=O)[nH]c(N=NCc2ccc(O)c(O)c2)n1
2. Cc1ccc(C2C3CN(C(C)C)CCC3=C(C#N)C(=N)C2(C#N)C#N)cc1 (stereo not given)
3. Cc1nnc(N2C(=O)C(=O)C(C(=O)c3ccco3)C2c2ccc(C(C)(C)C)cc2)s1 (stereo not given)
4. CCOC(=O)c1c2ccc(OCC(=O)NN=Cc3ccc(Cl)cc3)cc2n2ccccc12
5. O=C1NC(=O)N(c2cccc(F)c2)C(=O)C1=Cc1c[nH]c2ccccc12
6. CN=c1scc(C)n1N=Cc1ccc(O)c(O)c1O
7. O=C(NN=Cc1c(O)n(-c2ccccc2)c(=S)[nH]c1=O)c1ccc(O)cc1

Result:
[3.90, 5.08, 5.10, 3.79, 4.44, 4.17, 4.20]

Respectfully, I request pEC50 for each entry included below.
1. Cc1nnc(SC(C(=O)O)=C2C(=O)Nc3ccccc32)[nH]1
2. c1ccc(CN=Nc2nc3ccccc3[nH]2)nc1
3. CN(C)[C@@H]1C(=O)C(C(N)=O)C(=O)[C@@]2(O)C(=O)C3C(=O)c4c(O)cccc4[C@@](C)(O)C3C(O)C12 (stereo not given in full)
4. CCOc1ccc(N2C(=O)C(=Cc3ccco3)C(=O)NC2=S)cc1

Result:
1. 4.60
2. 4.38
3. 4.69
4. 3.75

# return pEC50 for each item in the list
1. O=C1Nc2ccccc2/C1=N/NC(=S)Nc1ccc(O)cc1
2. O=C(/C=C/c1ccco1)NCC(=O)NNC1=c2ccccc2=NC1=O
3. C=CCOc1cccc(C2C(C(=O)c3cc4ccccc4o3)C(=O)C(=O)N2c2cc(C)on2)c1 (stereo not given)
4. COc1[nH]c(N=Cc2ccccc2)c(C#N)c1C#N

Result:
[5.40, 5.26, 4.09, 5.25]

Ask: I am curious: what pEC50 value has been reported for O=NC1CC2(CC(N=O)C1N=O)OCCO2 (stereo not given) ?
Result: 4.89
